# Measurement protocol: Stability in pH 1.0 buffer monitored by 31P-NMR
# Assay type: physicochemical
Quantity measured: half-life (h)
The answer is to be given in h; state only the numeric part.

Quick one: half-life of C[C@H](NP(=O)(OCCOCn1cnc2c(=O)[nH]c(N)nc21)Oc1ccccc1)C(=O)OCc1ccccc1 (stereo partly shown) [Compound 9] ?
11

----------
# half-life listing for each entry below
# Assay system: carboxypeptidase Y (Saccharomyces cerevisiae, UniProt P00729)
# Sequence (P00729 112-532): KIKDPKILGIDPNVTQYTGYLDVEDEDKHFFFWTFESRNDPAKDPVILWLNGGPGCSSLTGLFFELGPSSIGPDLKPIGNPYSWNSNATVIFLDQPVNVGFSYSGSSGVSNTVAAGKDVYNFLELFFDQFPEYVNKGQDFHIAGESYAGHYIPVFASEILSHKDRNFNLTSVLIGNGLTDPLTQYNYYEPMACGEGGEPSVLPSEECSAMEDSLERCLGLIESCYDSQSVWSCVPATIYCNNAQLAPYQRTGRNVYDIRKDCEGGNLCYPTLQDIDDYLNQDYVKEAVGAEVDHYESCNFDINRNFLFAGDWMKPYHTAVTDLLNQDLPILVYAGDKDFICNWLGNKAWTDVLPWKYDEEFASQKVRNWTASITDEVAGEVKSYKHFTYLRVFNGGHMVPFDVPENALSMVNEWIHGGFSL
# Measurement protocol: Carboxypeptidase Y-mediated cleavage monitored by 31P-NMR
# Type: in vitro ADME
# Measurement context: yeast, carboxypeptidase Y (isolated enzyme), pH 7.6
The answer is to be given in min; state only the numeric part.

Field: example entries. Status: answers known.
Compound: C[C@H](NP(=O)(OCCOCn1cnc2c(=O)[nH]c(N)nc21)Oc1ccccc1)C(=O)OCc1ccccc1 (stereo partly drawn)
Quantity measured: half-life
Unit tag: min
Value reported: 17
//
Compound: COC(=O)[C@@H](NP(=O)(OCCOCn1cnc2c(=O)[nH]c(N)nc21)Oc1cccc2ccccc12)C(C)C (stereo partly drawn)
Quantity measured: half-life
Unit tag: min
Value reported: 4320

Next compound, please.
Quick one: half-life of CC(C)OC(=O)[C@H](C)NP(=O)(OCCOCn1cnc2c(=O)[nH]c(N)nc21)Oc1ccccc1 (stereo partly drawn) ?
2760
